B1: MLL5 (parent)
chain: HDDGYMICCDKCSVWQHIDCMGID

Variants of: B1
Method Description: protein stability index of a GFP-peptide fusion (GPS, HEK-293T) (PSI 1-6); higher = more stable;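 note: lentivirally expressed fusions sorted by FACS into six bins by GFP to DsRed ratio, PSI derived from sequencing read proportions per bin multiplied by bin number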
Run Parameters: c terminus: a fixed tail appended
Overview of recorded protein stability index for various variants
Quantity Kind: protein stability index

Chain: HDDGYMICCDKCSAWQHIDCMGID [V14A]
Quantity Kind: protein stability index
Value: 2.41

Chain: HDDGYMICCDKHSVWQHIDCMGID [C12H]
Quantity Kind: protein stability index
Value: 2.65

Chain: HDDGYMICCDKCSVWQHIDCMYID [G22Y]
Quantity Kind: protein stability index
Value: 2.24

Chain: HDDGYMICCDKCSVCQHIDCMGID [W15C]
Quantity Kind: protein stability index
Value: 3.49

Chain: HDDGYMICCDKCSVAQHIDCMGID [W15A]
Quantity Kind: protein stability index
Value: 3.38

Chain: HDDGYMICCDKCSYWQHIDCMGID [V14Y]
Quantity Kind: protein stability index
Value: 2.12

Chain: HDDGYMICCDKCSVDQHIDCMGID [W15D]
Quantity Kind: protein stability index
Value: 4.24

Chain: HDDGYMICCDKCSVWQHHDCMGID [I18H]
Quantity Kind: protein stability index
Value: 3.6

Chain: HDDGYMHCCDKCSVWQHIDCMGID [I7H]
Quantity Kind: protein stability index
Value: 3.55

Chain: HDDGYMICCDKCSVWQHIDCMGQD [I23Q]
Quantity Kind: protein stability index
Value: 2.89

Chain: HDDGYMICCDKCSVWQHSDCMGID [I18S]
Quantity Kind: protein stability index
Value: 3.06

Chain: HDDGYMICCDKCSVWQHIDCMGPD [I23P]
Quantity Kind: protein stability index
Value: 2.5

Chain: HDDGYMICCDKCSVWQRIDCMGID [H17R]
Quantity Kind: protein stability index
Value: 1.95

Chain: HDDGYMICCDDCSVWQHIDCMGID [K11D]
Quantity Kind: protein stability index
Value: 2.79

Chain: HDDGYMIMCDKCSVWQHIDCMGID [C8M]
Quantity Kind: protein stability index
Value: 1.68

Chain: HDDGYMICMDKCSVWQHIDCMGID [C9M]
Quantity Kind: protein stability index
Value: 1.99

Chain: HDDGYMECCDKCSVWQHIDCMGID [I7E]
Quantity Kind: protein stability index
Value: 3.23

Chain: HDDGYMICCDKCSVWRHIDCMGID [Q16R]
Quantity Kind: protein stability index
Value: 2.48

Chain: HDDGNMICCDKCSVWQHIDCMGID [Y5N]
Quantity Kind: protein stability index
Value: 3.3

Chain: HDTGYMICCDKCSVWQHIDCMGID [D3T]
Quantity Kind: protein stability index
Value: 2.41

Chain: HDDGYMICCDKCSVWQHIDCQGID [M21Q]
Quantity Kind: protein stability index
Value: 2.91

Chain: HDDGYMICCDKCSVWQHIDCMCID [G22C]
Quantity Kind: protein stability index
Value: 3.79

Chain: HDDGQMICCDKCSVWQHIDCMGID [Y5Q]
Quantity Kind: protein stability index
Value: 3.19

Chain: HDDGYMICCDKCSVWQHIDCTGID [M21T]
Quantity Kind: protein stability index
Value: 2.91

Chain: HDDGYMICCDKCSVWQHIDYMGID [C20Y]
Quantity Kind: protein stability index
Value: 1.68

Chain: HDDGYMICCDKCSVWQHIDCMGWD [I23W]
Quantity Kind: protein stability index
Value: 1.77

Chain: HDDGYMICCQKCSVWQHIDCMGID [D10Q]
Quantity Kind: protein stability index
Value: 2.29

Chain: HDDGYMICCDKCSVWQHIDCMAID [G22A]
Quantity Kind: protein stability index
Value: 2.2

Chain: HDDGYMICCDKCYVWQHIDCMGID [S13Y]
Quantity Kind: protein stability index
Value: 1.93

Chain: HGDGYMICCDKCSVWQHIDCMGID [D2G]
Quantity Kind: protein stability index
Value: 2.05

Chain: HDDGYMICCDKCHVWQHIDCMGID [S13H]
Quantity Kind: protein stability index
Value: 2.09

Chain: HDDGYMICCDKCCVWQHIDCMGID [S13C]
Quantity Kind: protein stability index
Value: 3.19

Chain: MDDGYMICCDKCSVWQHIDCMGID [H1M]
Quantity Kind: protein stability index
Value: 1.57

Chain: HDDGYMICCDKCSVWQHNDCMGID [I18N]
Quantity Kind: protein stability index
Value: 2.52

Chain: HDDTYMICCDKCSVWQHIDCMGID [G4T]
Quantity Kind: protein stability index
Value: 2.04

Chain: HDDGRMICCDKCSVWQHIDCMGID [Y5R]
Quantity Kind: protein stability index
Value: 3.42

Chain: HDDGYMICCDKCSVWQHGDCMGID [I18G]
Quantity Kind: protein stability index
Value: 3.5

Chain: HDDGYMIECDKCSVWQHIDCMGID [C8E]
Quantity Kind: protein stability index
Value: 2.73

Chain: HDDGYMICCDKCSGWQHIDCMGID [V14G]
Quantity Kind: protein stability index
Value: 2.94

Chain: HDDGYMIQCDKCSVWQHIDCMGID [C8Q]
Quantity Kind: protein stability index
Value: 2.96

Chain: HDDGYMICCDKCSVWQHIDCKGID [M21K]
Quantity Kind: protein stability index
Value: 2.81

Chain: HDDGYMICCSKCSVWQHIDCMGID [D10S]
Quantity Kind: protein stability index
Value: 2.72

Chain: HDDGYMICCDKCSDWQHIDCMGID [V14D]
Quantity Kind: protein stability index
Value: 3.37

Chain: HDDGYMICCCKCSVWQHIDCMGID [D10C]
Quantity Kind: protein stability index
Value: 2.71

Chain: HDDGLMICCDKCSVWQHIDCMGID [Y5L]
Quantity Kind: protein stability index
Value: 2.78

Chain: HDDGYMICDDKCSVWQHIDCMGID [C9D]
Quantity Kind: protein stability index
Value: 3.74

Chain: HDDGYMICCDKCSVIQHIDCMGID [W15I]
Quantity Kind: protein stability index
Value: 2.43

Chain: HDDGYMICNDKCSVWQHIDCMGID [C9N]
Quantity Kind: protein stability index
Value: 2.77

Chain: HDDGCMICCDKCSVWQHIDCMGID [Y5C]
Quantity Kind: protein stability index
Value: 3.04

Chain: HDDGTMICCDKCSVWQHIDCMGID [Y5T]
Quantity Kind: protein stability index
Value: 3.96

Chain: HDDGYMICCDKCSLWQHIDCMGID [V14L]
Quantity Kind: protein stability index
Value: 1.78

Chain: HDDGYMLCCDKCSVWQHIDCMGID [I7L]
Quantity Kind: protein stability index
Value: 2.06

Chain: HDDGYMICCDKCSVWQHIDKMGID [C20K]
Quantity Kind: protein stability index
Value: 2.06

Chain: HDDGYMICGDKCSVWQHIDCMGID [C9G]
Quantity Kind: protein stability index
Value: 3.81

Chain: HDDGYMICWDKCSVWQHIDCMGID [C9W]
Quantity Kind: protein stability index
Value: 2.16

Chain: HDDGYMICCDKCLVWQHIDCMGID [S13L]
Quantity Kind: protein stability index
Value: 2.18

Chain: HDDGYMICCDKCSVQQHIDCMGID [W15Q]
Quantity Kind: protein stability index
Value: 3.63

Chain: HDDGYMISCDKCSVWQHIDCMGID [C8S]
Quantity Kind: protein stability index
Value: 1.83

Chain: HDDGYMICCDKCSVWQHPDCMGID [I18P]
Quantity Kind: protein stability index
Value: 2.94

Chain: HKDGYMICCDKCSVWQHIDCMGID [D2K]
Quantity Kind: protein stability index
Value: 2.69

Chain: HDDGYMICCDKCSVFQHIDCMGID [W15F]
Quantity Kind: protein stability index
Value: 3.11

Chain: HDDGYMICLDKCSVWQHIDCMGID [C9L]
Quantity Kind: protein stability index
Value: 2.12

Chain: HDIGYMICCDKCSVWQHIDCMGID [D3I]
Quantity Kind: protein stability index
Value: 1.63

Chain: HDDGYMICCDKCSVWQHIDCMQID [G22Q]
Quantity Kind: protein stability index
Value: 2.17

Chain: HDDGYMICCDKCSVWEHIDCMGID [Q16E]
Quantity Kind: protein stability index
Value: 2.6

Chain: HDDGYMICCDGCSVWQHIDCMGID [K11G]
Quantity Kind: protein stability index
Value: 3.03

Chain: HDDGYMIPCDKCSVWQHIDCMGID [C8P]
Quantity Kind: protein stability index
Value: 3.12

Chain: IDDGYMICCDKCSVWQHIDCMGID [H1I]
Quantity Kind: protein stability index
Value: 1.98

Chain: HDDWYMICCDKCSVWQHIDCMGID [G4W]
Quantity Kind: protein stability index
Value: 2.56

Chain: HDDGYYICCDKCSVWQHIDCMGID [M6Y]
Quantity Kind: protein stability index
Value: 2.14

Chain: HDDGYMIYCDKCSVWQHIDCMGID [C8Y]
Quantity Kind: protein stability index
Value: 2.12

Chain: HDDGYMICTDKCSVWQHIDCMGID [C9T]
Quantity Kind: protein stability index
Value: 3.75

Chain: ADDGYMICCDKCSVWQHIDCMGID [H1A]
Quantity Kind: protein stability index
Value: 2.42

Chain: HDDGDMICCDKCSVWQHIDCMGID [Y5D]
Quantity Kind: protein stability index
Value: 3.14

Chain: HDDGYMICCDKCMVWQHIDCMGID [S13M]
Quantity Kind: protein stability index
Value: 2.45

Chain: HDDGYMICCDKCSVWQFIDCMGID [H17F]
Quantity Kind: protein stability index
Value: 1.65

Chain: HDDGYMMCCDKCSVWQHIDCMGID [I7M]
Quantity Kind: protein stability index
Value: 2.29

Chain: HDDGYMICCDKCSVWQHIDCMKID [G22K]
Quantity Kind: protein stability index
Value: 2.78

Chain: HDDGYMICCDKCSVWQHKDCMGID [I18K]
Quantity Kind: protein stability index
Value: 3.36
